system: curly cress (Lepidium sativum) seedlings; experiment: Root growth bioassay of germinating curly cress seedlings; assay type: in vivo; details: curly cress seedling assay (C), 10^-6 M
Recorded measurements of % Root Growth Inhibitor (inhibition), one per entry
Return type: number; implicit unit %.

Below are worked cases with known answers.
compound.structure.string	% Root Growth Inhibitor (inhibition) [%]
COC(=O)CNC(=O)/C(=C/c1ccccc1)N(C)C(=O)[C@@H](NC(=O)OC(C)(C)C)C(C)C	85
CCN(C(=O)[C@@H](CC(C)C)NC(=O)OC(C)(C)C)/C(=C\c1ccccc1)C(=O)NCC(=O)OC	80
COC(=O)CNC(=O)/C(=C/c1ccccc1)N(C)C(=O)[C@H](CC(C)C)NC(=O)OC(C)(C)C	50

Please examine the following record next.
Given the entry `COC(=O)CNC(=O)/C(=C/c1ccccc1)NC(=O)[C@@H](C)NC(=O)OC(C)(C)C` , report its measured % Root Growth Inhibitor (inhibition). 20

The origin of these recorded values is patent US4735651A.
